Where do these numbers come from? They come from the supplement of paper PMC10627819.

- System: S. pneumoniae D39V
REPORTED_PROPERTY: MIC

Worked examples follow.
COc1cc(Cc2cnc(N)nc2N)cc(OC)c1OC = 4 µg/mL
CCC[C@@H]1C[C@@H](C(=O)N[C@@H]([C@H]2O[C@H](SC)[C@H](O)[C@@H](O)[C@H]2O)[C@H](C)Cl)N(C)C1 = 0.125 µg/mL
C/C(=C\C(=O)OCCCCCCCCC(=O)O)C[C@@H]1OC[C@H](C[C@@H]2O[C@H]2[C@@H](C)[C@H](C)O)[C@@H](O)[C@H]1O = 0.25 µg/mL

Under S. pneumoniae D39V: MIC value of C[C@@H](O)[C@H]1C(=O)N2C(C(=O)O)=C(SCCNC=N)C[C@H]12 ?
0.062 µg/mL

Under S. pneumoniae D39V: MIC value of CCC[C@@H]1C[C@@H](C(=O)N[C@@H]([C@H]2O[C@H](SC)[C@H](O)[C@@H](O)[C@H]2O)[C@@H](C)O)N(C)C1 ?
1.6 µg/mL

----------
- System: S. aureus Newman
- TEST_METHOD_NOTES: Bliss interaction score (quartile over a dose matrix) (fitness difference); higher = more antagonism (negative = synergy)
REPORTED_PROPERTY: Bliss interaction score
Provide a numeric answer; units are not to be included.

Under S. aureus Newman: Bliss interaction score value of CC(=O)OC[C@H]1O[C@@H]([S-])[C@H](OC(C)=O)[C@@H](OC(C)=O)[C@@H]1OC(C)=O.CCP(CC)CC.[Au+] [Auranofin] + CC[C@H]1OC(=O)[C@H](C)[C@@H](O[C@H]2C[C@@](C)(OC)[C@@H](O)[C@H](C)O2)[C@H](C)[C@@H](O[C@@H]2O[C@H](C)C[C@H](N(C)C)[C@H]2O)[C@](C)(OC)C[C@@H](C)C(=O)[C@H](C)[C@@H](O)[C@]1(C)O [Clarithromycin] ?
0.0636

Under S. aureus Newman: Bliss interaction score value of CC(=O)OC[C@H]1O[C@@H]([S-])[C@H](OC(C)=O)[C@@H](OC(C)=O)[C@@H]1OC(C)=O.CCP(CC)CC.[Au+] [Auranofin] + Oc1cc(Cl)ccc1Oc1ccc(Cl)cc1Cl [Triclosan] ?
-0.0211

----------
- System: S. aureus Newman
- TEST_METHOD_NOTES: Bliss interaction score (quartile over a dose matrix) (fitness difference); higher = more antagonism (negative = synergy)
Would you mind labelling by Bliss interaction score? At or over 0.04 is Condition met, under is Condition not met.

# bool: Bliss interaction score of O=C(N[C@H](CO)[C@H](O)c1ccc([N+](=O)[O-])cc1)C(Cl)Cl [Chloramphenicol] + O=C(O)c1cn(C2CC2)c2cc(N3CCNCC3)c(F)cc2c1=O [Ciprofloxacin] >= 0.04
Condition met

# bool: Bliss interaction score of CC(=O)OC[C@H]1O[C@@H]([S-])[C@H](OC(C)=O)[C@@H](OC(C)=O)[C@@H]1OC(C)=O.CCP(CC)CC.[Au+] [Auranofin] + O=C(N[C@H](CO)[C@H](O)c1ccc([N+](=O)[O-])cc1)C(Cl)Cl [Chloramphenicol] >= 0.04
Condition met

# bool: Bliss interaction score of COc1c(N2C[C@@H]3CCCN[C@@H]3C2)c(F)cc2c(=O)c(C(=O)O)cn(C3CC3)c12 [Moxifloxacin] + CO[C@H]1/C=C/O[C@@]2(C)Oc3c(C)c(O)c4c(O)c(c(/C=N/N5CCN(C)CC5)c(O)c4c3C2=O)NC(=O)/C(C)=C\C=C\[C@H](C)[C@H](O)[C@@H](C)[C@@H](O)[C@@H](C)[C@H](OC(C)=O)[C@@H]1C [Rifampicin] >= 0.04
Condition not met

# bool: Bliss interaction score of CCC[C@@H]1C[C@@H](C(=O)N[C@@H]([C@H]2O[C@H](SC)[C@H](O)[C@@H](O)[C@H]2O)[C@H](C)Cl)N(C)C1 [Clindamycin] + CC(=O)NC[C@H]1CN(c2ccc(N3CCOCC3)c(F)c2)C(=O)O1 [Linezolid] >= 0.04
Condition not met

# bool: Bliss interaction score of N[C@@H]1CONC1=O [CycloserineD] + Oc1cc(Cl)ccc1Oc1ccc(Cl)cc1Cl [Triclosan] >= 0.04
Condition not met

----------
- System: S. aureus DSM 20231
- TEST_METHOD_NOTES: Bliss interaction score (quartile over a dose matrix) (fitness difference); higher = more antagonism (negative = synergy)
# reported Bliss interaction score; entries follow
Provide a numeric answer; units are not to be included.

Worked examples follow.
C[C@@H](O)[C@H]1C(=O)N2C(C(=O)O)=C(SCCNC=N)C[C@H]12 [Imipenem] + CCN(CC)CCOC(=O)c1ccc(N)cc1 [Procaine] = 0.0667
CCC[C@@H]1C[C@@H](C(=O)N[C@@H]([C@H]2O[C@H](SC)[C@H](O)[C@@H](O)[C@H]2O)[C@H](C)Cl)N(C)C1 [Clindamycin] + Nc1ccc(O)c(C(=O)O)c1 [Mesalamine] = -0.165
CCC[C@@H]1C[C@@H](C(=O)N[C@@H]([C@H]2O[C@H](SC)[C@H](O)[C@@H](O)[C@H]2O)[C@H](C)Cl)N(C)C1 [Clindamycin] + Cc1ccc(C(C)C)c(O)c1 [Thymol] = -0.271
O=C(O[C@@H]1Cc2c(O)cc(O)cc2O[C@@H]1c1cc(O)c(O)c(O)c1)c1cc(O)c(O)c(O)c1 [EGCG] + CN[C@@H]1[C@H](O)[C@H](NC)[C@H]2O[C@@]3(O)C(=O)C[C@@H](C)O[C@H]3O[C@@H]2[C@H]1O [Spectinomycin] = -0.0655

Next compound, please.
Under S. aureus DSM 20231: Bliss interaction score value of O=C(O[C@@H]1Cc2c(O)cc(O)cc2O[C@@H]1c1cc(O)c(O)c(O)c1)c1cc(O)c(O)c(O)c1 [EGCG] + Cc1cc(NS(=O)(=O)c2ccc(N)cc2)no1 [Sulfamethoxazol] ?
0.071

----------
- Tested on: S. pneumoniae D39V
- TEST_METHOD_NOTES: Bliss interaction score (quartile over a dose matrix) (fitness difference); higher = more antagonism (negative = synergy)
# reported Bliss interaction score; entries follow
Provide a numeric answer; units are not to be included.

COc1c(N2C[C@@H]3CCCN[C@@H]3C2)c(F)cc2c(=O)c(C(=O)O)cn(C3CC3)c12 [Moxifloxacin] + O=C1CN(/N=C/c2ccc([N+](=O)[O-])o2)C(=O)N1 [Nitrofurantoin] = 0.0837

Dear colleague, I am looking for the recorded Bliss interaction score of the following molecule: C/C(=C\C(=O)OCCCCCCCCC(=O)O)C[C@@H]1OC[C@H](C[C@@H]2O[C@H]2[C@@H](C)[C@H](C)O)[C@@H](O)[C@H]1O [Pseudomonic acid] + CN[C@@H]1[C@H](O)[C@H](NC)[C@H]2O[C@@]3(O)C(=O)C[C@@H](C)O[C@H]3O[C@@H]2[C@H]1O [Spectinomycin]
-0.0665

----------
# reported Bliss interaction score; entries follow
- Test system: S. aureus DSM 20231
- TEST_METHOD_NOTES: Bliss interaction score (quartile over a dose matrix) (fitness difference); higher = more antagonism (negative = synergy)
Provide a numeric answer; units are not to be included.

Worked examples follow.
C/C(=C\C(=O)OCCCCCCCCC(=O)O)C[C@@H]1OC[C@H](C[C@@H]2O[C@H]2[C@@H](C)[C@H](C)O)[C@@H](O)[C@H]1O [Pseudomonic acid] + Cn1nnc(-c2ccc(-c3ccc(N4C[C@H](CO)OC4=O)cc3F)cn2)n1 [Tedizolid] = 0.0061
CCC[C@@H]1C[C@@H](C(=O)N[C@@H]([C@H]2O[C@H](SC)[C@H](O)[C@@H](O)[C@H]2O)[C@@H](C)O)N(C)C1 [Lincomycin] + CN[C@@H]1[C@H](O[C@H]2[C@H](O[C@H]3[C@H](O)[C@@H](O)[C@H](N=C(N)N)[C@@H](O)[C@@H]3N=C(N)N)O[C@@H](C)[C@]2(O)C=O)O[C@@H](CO)[C@H](O)[C@H]1O [Streptomycin] = -0.107

Next compound, please.
Dear colleague, I am looking for the recorded Bliss interaction score of the following compound: CC(=O)OC[C@H]1O[C@@H]([S-])[C@H](OC(C)=O)[C@@H](OC(C)=O)[C@@H]1OC(C)=O.CCP(CC)CC.[Au+] [Auranofin] + C[C@H]1C[C@@H]2[C@H]([C@@H](O)C[C@@]3(C)[C@H]2CC[C@]3(O)C(=O)CO)[C@@]2(C)C=CC(=O)C=C12 [Methylprednisolone]
0.162

----------
- Test system: S. aureus Newman
- TEST_METHOD_NOTES: fitness (endpoint OD595 vs no drug) (fraction); higher = more growth
- RUN_CONDITIONS: first compound 1.5 µg/mL; partner 2.5 µg/mL
# reported fitness; entries follow
Provide a numeric answer; units are not to be included.

Worked examples follow.
N[C@@H]1CONC1=O [Cycloserine D] + COc1cccc2c1C(=O)c1c(O)c3c(c(O)c1C2=O)C[C@@](O)(C(=O)CO)C[C@@H]3O[C@H]1C[C@H](N)[C@H](O)[C@H](C)O1 [Doxorubicin] = 0.771
O=C(N[C@H](CO)[C@H](O)c1ccc([N+](=O)[O-])cc1)C(Cl)Cl [Chloramphenicol] + COc1cccc2c1C(=O)c1c(O)c3c(c(O)c1C2=O)C[C@@](O)(C(=O)CO)C[C@@H]3O[C@H]1C[C@H](N)[C@H](O)[C@H](C)O1 = 0.579
N[C@@H]1CONC1=O [Cycloserine D] + CN1C2=CC=CC=C2N=C3C1=CC=CC3=O [Pyocyanin] = 0.826

Next compound, please.
Under S. aureus Newman: fitness value of N[C@@H]1CONC1=O [Cycloserine D] + C[n+]1ccc(-c2cc[n+](C)cc2)cc1 [Paraquat] ?
0.984
